System: HOP-62
Assay: NCI tumour cell line growth inhibition, 48 h
Activity calls are given as the source filed them. Cut-off read from the data, not from the text of the source: active = GI50 up to about 1.1 µM and inactive = higher.
Pick from YES for active, NO for inactive when you respond.

# example entries with known answers
{"columns": ["compound", "labelValue"],
 "data": [
  ["CCC1=C(C)C(=O)N/C1=C\\c1[nH]c(C)c([C@H](C)CCN)c1C", "NO"],
  ["COc1ccc(CNc2nc3cc(C(F)(F)F)ccc3nc2C)cc1OC", "NO"],
  ["O=C1/C(=C/c2ccccc2)CCC/C1=C\\c1ccc(O)c(CN2CCCCC2)c1", "NO"]
]}

Please let me know the test result on file for COC(=O)c1cn(CCCCO)nn1 .
NO

Please let me know the test result on file for Cc1ccc(S(=O)(=O)NC(=O)C2C(=O)CC3(CCCCC3)CC2=O)cc1 .
NO

Please let me know the test result on file for O=C1C=C[C@@H](COC2OC(CO)C(O)C(O)C2O)O1 (some centres not stated) .
NO

Please let me know the test result on file for CC(=O)NNc1nc(C)c(C(=O)/C=C/c2ccc(/C=C/C(=O)c3sc(NNC(C)=O)nc3C)cc2)s1 .
NO

Please let me know the test result on file for CC(C)(c1ccc(Oc2ccc(C#N)c(C#N)c2)cc1)c1ccc(Oc2ccc(C#N)c(C#N)c2)cc1 .
NO

---

Tested on: OVCAR-4
Experiment: NCI tumour cell line growth inhibition, 48 h
Active and inactive are the calls of the source. Rule as the data show it: active = GI50 up to about 1.1 µM and inactive = higher. Residues, ends and D or L forms follow the SMILES beside them. *: point of attachment. Cbz = O=C(OCc1ccccc1)*
Pick from 1 (active), 0 (inactive) when you respond.

# example entries with known answers
{"columns": ["compound", "labelValue"],
 "data": [
  ["CC1NCCC(CC(=O)O)C1CC(=O)O (configuration not stated)", 0],
  ["Cc1c(C#N)c2nnn(C)c(=O)n2c1-c1ccccc1", 0],
  ["O=[N+]([O-])c1ccc(-n2nc3ccc4nonc4c3n2)cc1", 0]
]}

Please let me know the test result on file for CCOC(=O)CCC(NC(=O)OCc1ccccc1)C(=O)NC(CCC(=O)OCC)C(=O)OCC (configuration not stated) (Cbz-Glu(OEt)-Glu(OEt)-OEt; configuration not given here) .
0

Please let me know the test result on file for O=C1C=C(Nc2ccc(Cl)cc2Cl)c2ccccc2C1=O .
0

Please let me know the test result on file for O=S1(=O)CCN(Cc2ccccn2)CC1 .
0

Please let me know the test result on file for FC(F)(F)C1(c2ccccc2)SCc2nc3ccccc3n21 (configuration not stated) .
0

Please let me know the test result on file for C/C=C/C=C/C=C/C=C/C(=O)O .
0

Please let me know the test result on file for NC(=S)N/N=C/c1nccc2ccccc12 .
1

---

Test system: BT-549
Assay: NCI tumour cell line growth inhibition, 48 h
Activity calls are given as the source filed them. Rule as the data show it: active = GI50 up to about 1.1 µM and inactive = higher.
Pick from Yes for active, No for inactive when you respond.

# example entries with known answers
{"columns": ["compound", "experimentalSystem", "labelValue"],
 "data": [
  ["CC1=C(C)C2(C#N)C(=O)N3C(=NC(c4ccccc4)NC3c3ccccc3)C2(C#N)C(c2ccccc2)N1 (stereo unspecified)", "BT-549", "No"],
  ["Cc1ccn2c(CCc3nnc4cc(C)ccn34)nnc2c1", "BT-549", "No"],
  ["Cc1cc(NCCCCCCCNc2cc(C)nc3cc([N+](=O)[O-])ccc23)c2ccc([N+](=O)[O-])cc2n1", "BT-549", "No"],
  ["Nc1ccc(Oc2ccc(C34CC5C6CC7(c8ccc(Oc9ccc(N)cc9)cc8)CC5C(C3)C(C7)C6C4)cc2)cc1", "BT-549", "No"],
  ["COC(=O)c1ccccc1C1CN=NC12Cc1ccc3ccccc3c1C2=O (stereo unspecified)", "BT-549", "No"]
]}

Please let me know the test result on file for NCCCNc1ccc2c(c1)[n+]([O-])c1ccccc1[n+]2[O-] .
No

Please let me know the test result on file for CC(C)Cc1cc2c(cc1O)CCC1C2CC[C@@]2(C)C1CC[C@@H]2O (stereo partly specified) .
No

---

System: ACHN
Assay: NCI tumour cell line growth inhibition, 48 h
Activity calls are given as the source filed them. Cut-off read from the data, not from the text of the source: active = GI50 up to about 1.1 µM and inactive = higher.
Pick from active, inactive when you respond.

# example entries with known answers
{"columns": ["compound", "labelValue"],
 "data": [
  ["CC1(C)O[C@H]([C@H](O)c2nnc3ccc(Cl)nn23)[C@@H]([C@H]2COC(C)(C)O2)O1", "inactive"],
  ["CCOC(=O)C1=CC(C)(C(=O)OCC)Nc2c(nc(N)[nH]c2=O)N1 (centres undefined)", "inactive"],
  ["COc1ccc(-c2c3c(cc4cc5c(cc24)OCO5)C(=O)OC3)cc1OC", "inactive"],
  ["C#C[C@]1(O)[C@@H](CO)O[C@@H](n2ccc(=O)[nH]c2=O)[C@@H]1O", "active"],
  ["CC(C)(C)c1cc([Si](C)(C)C)c(C#N)c([Si](C)(C)C)c1", "inactive"],
  ["O=C(O)/C(=C/C(=O)c1ccc(Cl)cc1)NNc1ccc([N+](=O)[O-])cc1[N+](=O)[O-]", "inactive"],
  ["O=c1[nH]nc(-c2ccccc2)n1-c1cccc([N+](=O)[O-])c1", "inactive"],
  ["O=C1CC2(CCNCC2)C(=O)N1N1CCCC1", "inactive"]
]}

Please let me know the test result on file for CC(C)C(=O)NC(=S)Nc1ccc([N+](=O)[O-])cc1C#N .
inactive

Please let me know the test result on file for COc1ccc2c(c1)N=C1CSC(c3cc([N+](=O)[O-])ccc3Cl)N1C2 (centres undefined) .
inactive

Please let me know the test result on file for O=C1/C(=C/c2ccccc2)CCC/C1=C\c1ccc(O)c(CN2CCCCC2)c1 .
inactive

Please let me know the test result on file for C=C(C(=O)OC)[C@H]1CC/C(C)=C/CC[C@@](C)(O)C=CC[C@@]2(C)O[C@@H]2C1 .
inactive

Please let me know the test result on file for O=C(O)c1nc2ccc(C(F)(F)F)cc2nc1NCc1ccc(F)cc1 .
inactive

Please let me know the test result on file for COc1ccc(OC)c(CNc2ccc(C(=O)O)cc2)c1 .
inactive

Please let me know the test result on file for Cc1cc(NCCCCCCCNc2cc(C)nc3cc([N+](=O)[O-])ccc23)c2ccc([N+](=O)[O-])cc2n1 .
inactive

Please let me know the test result on file for CC(=O)O[C@H]1C(=O)[C@@]2(C)[C@H]([C@H](OC(=O)c3cccc([N+](=O)[O-])c3)[C@]3(O)C[C@H](OC(=O)[C@H](O)[C@@H](NC(=O)c4ccccc4)c4ccccc4)C(C)=C1C3(C)C)[C@]1(OC(C)=O)CO[C@@H]1C[C@@H]2O .
active

Please let me know the test result on file for Cc1ccccc1C1CC(=O)CC(c2ccccc2C)C12C(=O)NC(=S)NC2=O (centres undefined) .
inactive

Please let me know the test result on file for Cc1nc(C(N)=S)sc1C(=O)CC(=O)C(=O)Nc1cccc(Cl)c1C .
inactive

Please let me know the test result on file for Cc1cccc(Br)[n+]1[O-] .
inactive

---

System: PC-3
Test: NCI tumour cell line growth inhibition, 48 h
Active and inactive are the calls of the source. No stated cut-off is given here; in the data, active = GI50 up to about 1.1 µM and inactive = higher.
Pick from label 1 = active, label 0 = inactive when you respond.

# example entries with known answers
{"columns": ["compound", "labelValue"],
 "data": [
  ["CO/C(N)=C(C#N)/N=C/c1ccccc1", "label 0"],
  ["N#CC1=C(N)OC2=C(CCCc3ccc([N+](=O)[O-])cc32)C1c1ccccc1 (stereo unspecified)", "label 0"],
  ["NC(Cc1cc(I)c(Oc2ccc(O)c(I)c2)c(I)c1)C(=O)O (stereo unspecified) [RATHYRONINE]", "label 0"],
  ["CN(C)C(=S)/N=c1\\ssc(=S)n1Cc1ccccc1", "label 1"],
  ["C=CCC(CC=O)(C(=O)OCC)C(=O)OCC", "label 0"],
  ["COC(C)(C)C1=CCC(C)CC1 (stereo unspecified)", "label 0"],
  ["C[N+]12C=CC=C1C(N1CCCC1)c1scc(-c3ccc(Br)cc3)c12 (stereo unspecified)", "label 0"],
  ["Cc1cc(N2CCCCC2)nc2ccc(Cc3ccc4nc(N5CCCCC5)cc(C)c4c3)cc12", "label 0"]
]}

Please let me know the test result on file for COc1cc2c(cc1OC)C13CC[N+]4(C)CC5=CCOC6CC(=O)N2C1C6C5CC34[O-] (stereo unspecified) .
label 0

Please let me know the test result on file for O=C1CC2(CCNCC2)C(=O)N1N1CCCC1 .
label 0

Please let me know the test result on file for CN/C(=N\N=C1/C(=O)Nc2ccccc21)SCC(=O)c1ccc(Br)cc1 .
label 0

---

Catalogue of GI50 readings, one per entry.
Tested on: OVCAR-8
Assay: NCI tumour cell line growth inhibition, 48 h
The source made the active and inactive calls. Cut-off read from the data, not from the text of the source: active = GI50 up to about 1.1 µM and inactive = higher.

{"columns": ["molecule", "GI50"],
 "data": [
  ["COc1cc(C2S/C(=C/c3ccccc3)C(=O)N2Cc2ccccc2)cc(OC)c1OC (stereo not given)", "37.6 µM (inactive)"],
  ["COC(=O)c1ccccc1C1CN=NC12Cc1ccc3ccccc3c1C2=O (stereo not given)", "> 100 µM (inactive)"],
  ["CC(CO)(Nc1ccc([N+](=O)[O-])cc1[N+](=O)[O-])C(=O)O (stereo not given)", "34.8 µM (inactive)"],
  ["COC(=O)C1=C(C(=O)OC)C2(c3ccccc3)c3ccccc3C(=O)C1N2C1CCCCC1 (stereo not given)", "60.4 µM (inactive)"]
]}

Okay, now this molecule:
Param item = CC(=O)c1ccccc1NC(=O)C(=O)C(C(=O)c1ccccc1-c1ccccc1)C1OC(=O)c2ccccc21 (stereo not given) ; retrieve measured GI50.
19.1 µM (inactive)
